Target: PDE9 (Homo sapiens)
Sequence (O76083 whole entry): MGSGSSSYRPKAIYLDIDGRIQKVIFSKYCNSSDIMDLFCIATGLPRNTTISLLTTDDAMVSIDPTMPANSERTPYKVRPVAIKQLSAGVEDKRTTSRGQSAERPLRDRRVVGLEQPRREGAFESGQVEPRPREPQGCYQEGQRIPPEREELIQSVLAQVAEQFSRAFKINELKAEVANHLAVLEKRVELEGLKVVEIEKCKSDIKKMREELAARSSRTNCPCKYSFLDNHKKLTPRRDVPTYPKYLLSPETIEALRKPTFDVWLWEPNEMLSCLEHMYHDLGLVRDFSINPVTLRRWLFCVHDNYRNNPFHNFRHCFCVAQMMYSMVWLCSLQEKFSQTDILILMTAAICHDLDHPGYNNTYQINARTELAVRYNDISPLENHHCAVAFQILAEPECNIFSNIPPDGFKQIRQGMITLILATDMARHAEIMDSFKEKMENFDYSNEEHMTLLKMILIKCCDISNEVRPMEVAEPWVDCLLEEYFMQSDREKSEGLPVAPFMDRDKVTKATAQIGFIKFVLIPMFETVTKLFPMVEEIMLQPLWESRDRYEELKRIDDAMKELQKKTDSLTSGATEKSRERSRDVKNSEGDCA
Test: PDE9 inhibition assay
Type: biochemical
experimental endpoint: IC50 (nM)

Here is how some compounds turned out for IC50.
compound	IC50, nM
O=c1[nH]c(CN2CC(c3ccccn3)C2)cn2c(-c3ccc(F)cc3)ncc12	79
CC(c1cn2c(-c3ccccc3)ncc2c(=O)[nH]1)N1CC(Oc2ccccc2F)C1 (centres unmarked)	72
N#Cc1ccc(OC2CN(Cc3cn4c(-c5ccc(F)cc5)ncc4c(=O)[nH]3)C2)cc1	76
CC(C)OC1CN(C(C)c2cn3c(C4CCOCC4)ncc3c(=O)[nH]2)C1 (centres unmarked)	93
O=c1[nH]c(CN2CC(Oc3cccc(F)c3)C2)cn2c(C3CCOCC3)ncc12	7
COC1CN(C(c2ccccc2)c2cn3c(-c4ccccc4)ncc3c(=O)[nH]2)C1 (centres unmarked)	37

(P) CC(C)COC1CN(Cc2cn3c(C4CCCC4)ncc3c(=O)[nH]2)C1
(Q) CCc1ccc(C2CN(C(C)c3cn4c(-c5ccccc5)ncc4c(=O)[nH]3)C2)cc1 (centres unmarked)
Prompt line: // select label with min value of measured IC50 from [ P , Q ] Identify your selection by its label.
Response line: P

Recorded values, source patent US9643970B2.
